# procedureDetails: Solubility test in water, methanol and isopropanol
# Format: physicochemical
# conditions: isopropanol, organic solvent or mixture, isopropanol; read-out: Solubility, Isopropanol
measuredParameter: log10 of solubility (log10 of the value in mg/mL)
Annotation: log10 of solubility, mg/mL basis.

Some compounds with known log10 of solubility results, for comparison:
{"compound": "Cc1cncc(CN2CCC(=C3c4ccccc4CC(=O)c4sccc43)CC2)c1 [Rupatifen, rupatifen, reference compound]", "log10 of solubility": 1.30}
{"compound": "CN1CCC(=C2c3ccccc3CC(=O)c3sccc32)CC1 [Ketotifen, ketotifen]", "log10 of solubility": 1.30}
{"compound": "O=C1Cc2ccccc2C(=C2CCN(CCCCCOCOP(=O)(O)O)CC2)c2ccsc21 [Compound III-9]", "log10 of solubility": 1.38}

Look up log10 of solubility: O=C1Cc2ccccc2C(=C2CCN(CCCCCOCOP(=O)([O-])[O-])CC2)c2ccsc21.[Na+].[Na+] [Compound IV-9] 0.30

Please do the same for O=C1Cc2ccccc2C(=C2CCN(CCCCOP(=O)([O-])[O-])CC2)c2ccsc21.[Na+].[Na+] [Compound IV-4] as well. 0.00

Please do the same for OCCCN1CCC(=C2c3ccc(Cl)cc3CCc3cccnc32)CC1 [Hydroxypropyl desloratadine, hydroxypropyl desloratadine, reference compound] as well. 1.41

Please do the same for O=C1Cc2ccccc2C(=C2CCN(CCCOCOP(=O)(O)O)CC2)c2ccsc21 [Compound III-7] as well. 1.38

Please do the same for O=C1Cc2ccccc2C(=C2CCN(CCCCOP(=O)(O)O)CC2)c2ccsc21 [Compound III-4] as well. 1.38
